Reported host-toxicity (survival of uninfected host cells) values for a set of molecules
- Test system: uninfected human foreskin fibroblasts
- assay-text: Host toxicity, MTT assay on uninfected host cells
- test-parameters: infection: None, 5 μM compound
Report the figure in % without appending any unit label.

{"molecule": "N#Cc1ccc(CSc2ncnc3c2ncn3C2CC(CO)C(O)C2O)cc1 (stereo not drawn)", "observed-result": 100}
{"molecule": "COC(=O)c1ccc(CSc2ncnc3c2ncn3C2CC(CO)C(O)C2O)cc1 (stereo not drawn)", "observed-result": 100}
{"molecule": "OCC1CC(n2cnc3c(SCc4ccc(OC(F)(F)F)cc4)ncnc32)C(O)C1O (stereo not drawn)", "observed-result": 100}

Per the records, this molecule ( Nc1ccc(S(=O)(=O)Nc2ncccn2)cc1 [Compound 23, Sulfadiazine, reference compound] ) has host-toxicity (survival of uninfected host cells) equal to 98.2

Per the records, this molecule ( Cc1ccccc1CSc1ncnc2c1ncn2C1CC(CO)C(O)C1O (stereo not drawn) ) has host-toxicity (survival of uninfected host cells) equal to 100

Per the records, this molecule ( CS(=O)(=O)c1ccc(CSc2ncnc3c2ncn3C2CC(CO)C(O)C2O)cc1 (stereo not drawn) ) has host-toxicity (survival of uninfected host cells) equal to 100
